B1: KAT8 regulatory NSL complex subunit 2, residues 28 to 91; numbered along this chain, Q9H9L4 (parent)
chain: CAFTHRPCSHPRLEGQEFCIKHILEDKNAPFKQCSYISTKNGKRCPNAAPKPEKKDGVSFCAEH

# Variants of: B1
# Experiment: abundance fitness (aPCA) (normalised: wild type 0, dead -1); higher = more abundant; growth selection in yeast, the domain comes from the species named
# Assay context: Homo sapiens
Assay endpoint: abundance fitness

INSERT INTO assay_data (variant_description, reported_measurement) VALUES
  ('E17T', -0.051),
  ('I37T', 0.038),
  ('A49F', -0.124),
  ('K27G', -0.191),
  ('Q33E', -0.049),
  ('K21D', -0.149),
  ('P11A', -0.032),
  ('I23T', -0.178),
  ('C1V', -0.865),
  ('P52F', -0.01),
  ('G15V', -0.972),
  ('G15T', -0.428),
  ('I37H', 0.039),
  ('Q33N', -0.11),
  ('A49P', -0.219),
  ('Y36V', -0.129),
  ('E63G', -0.034),
  ('L24G', -0.098),
  ('K27Q', -0.149),
  ('S59R', -0.12),
  ('I20S', -0.136),
  ('K21A', -0.057);

Cited source for all entries: the Human Domainome abundance scans (Beltran et al. 2025)
